RECORDED_METRIC: IC50 (nM)
Provide the reading as a plain figure in nM.

// fetch WEE1 kinase enzyme (Homo sapiens) IC50 for "CC(C)(C#N)c1cccc(-n2c3nc(Nc4ccc5c(c4)CNCC5)ncc3c(=O)n2CC(F)(F)F)n1"
10

// fetch WEE1 kinase enzyme (Homo sapiens) IC50 for "CC(C)(C)c1csc(-n2c3nc(Nc4ccc5c(c4)CCNC5)ncc3c(=O)n2CC(F)(F)F)n1"
19

// fetch WEE1 kinase enzyme (Homo sapiens) IC50 for "CC(C)(C#N)c1cccc(-n2c3nc(Nc4ccc5c(c4)CCNC5(C)C)ncc3c(=O)n2CC(F)(F)F)n1"
5

// fetch WEE1 kinase enzyme (Homo sapiens) IC50 for "CC(C)(C)c1csc(-n2c3nc(Nc4ccc5c(c4)CCNC5)ncc3c(=O)n2C2CC2)n1"
18

// fetch WEE1 kinase enzyme (Homo sapiens) IC50 for "CCn1c(=O)c2cnc(Nc3ccc4c(c3)CNCC4)nc2n1-c1cccc(C(C)(C)C#N)n1"
7
